Test system: NIH/3T3 cells transfected with the same control vector
Experiment: NIH/3T3 mock cell proliferation assay (counter assay, general toxicity)
Type: cell-based
Details: Mus musculus, NIH3T3, 72 h, 72-hr incubation, CellTiter Glo, starting with 30 μM; counter assay for general toxicity; read-out: NIH/3T3 MOCK CTG (IC50)
The following molecules are shown together with reported IC50 values.

MOLECULE: C[C@H](Nc1c(-c2nc3ccc(N4CCOCC4)c(F)c3[nH]2)c(=O)[nH]c2ccccc12)c1ccccn1
IC50 (µM): 13.1
//
MOLECULE: C[C@H](Nc1c(-c2nc3ccc(N4CCOCC4)cc3[nH]2)c(=O)[nH]c2ccc(F)cc12)c1ccccn1
IC50 (µM): 0.661
//
MOLECULE: CC(Nc1c(-c2nc3ccc(N4CCN(C)CC4)c(F)c3[nH]2)c(=O)[nH]c2ccccc12)c1ccccn1 (single isomer, unassigned) [Compound 13b]
IC50 (µM): 1.74

====

Target: NIH/3T3 cells overexpressing FGFR3 WT-TACC3 fusion protein (Homo sapiens)
Construct: NIH/3T3 FGFR3 WT-TACC3 CTG (IC50); other: 72-hr incubation, CellTiter Glo, starting with 10 μM; fused on or other part: Q9Y6A5 (Transforming acidic coiled-coil-containing protein 3)
Sequence (P22607 whole entry, change not shown, the tested form may be a part): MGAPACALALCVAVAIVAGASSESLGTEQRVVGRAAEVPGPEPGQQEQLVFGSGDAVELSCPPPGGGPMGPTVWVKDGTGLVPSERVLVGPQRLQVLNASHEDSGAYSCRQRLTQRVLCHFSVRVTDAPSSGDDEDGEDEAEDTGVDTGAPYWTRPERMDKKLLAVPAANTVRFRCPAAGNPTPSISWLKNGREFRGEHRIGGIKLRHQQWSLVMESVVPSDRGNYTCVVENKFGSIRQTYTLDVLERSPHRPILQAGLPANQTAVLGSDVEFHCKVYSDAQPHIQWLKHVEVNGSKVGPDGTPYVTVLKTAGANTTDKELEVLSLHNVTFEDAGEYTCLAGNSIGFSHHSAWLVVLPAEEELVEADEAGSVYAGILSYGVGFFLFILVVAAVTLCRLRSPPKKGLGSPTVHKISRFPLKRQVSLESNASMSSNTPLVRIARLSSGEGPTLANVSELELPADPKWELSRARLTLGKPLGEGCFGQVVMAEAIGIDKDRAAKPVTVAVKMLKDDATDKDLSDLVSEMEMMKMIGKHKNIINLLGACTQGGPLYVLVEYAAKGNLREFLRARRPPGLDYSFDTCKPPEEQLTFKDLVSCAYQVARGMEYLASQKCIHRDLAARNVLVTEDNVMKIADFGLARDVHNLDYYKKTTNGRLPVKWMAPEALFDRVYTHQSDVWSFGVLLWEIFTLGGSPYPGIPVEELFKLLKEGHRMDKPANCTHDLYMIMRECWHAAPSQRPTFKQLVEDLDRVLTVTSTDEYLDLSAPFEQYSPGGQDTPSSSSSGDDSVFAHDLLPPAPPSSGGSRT
Assay: NIH/3T3 FGFR3 WT-TACC3 cell proliferation assay
Type: cell-based
Details: 72-hr incubation, CellTiter Glo, starting with 10 μM; read-out: NIH/3T3 FGFR3 WT-TACC3 CTG (IC50)

COMPOUND: C[C@H](Nc1c(-c2nc3cc(C(F)(F)F)c(N(C)C4CCN(C)CC4)cc3[nH]2)c(=O)[nH]c2ccccc12)c1ccccn1 [Compound 19]
GI50: 46.1 nM

COMPOUND: CC(Nc1c(-c2nc3cc(F)c(N4CCOCC4)cc3[nH]2)c(=O)[nH]c2ccccc12)c1ncccn1 (single isomer, unassigned) [Compound 27a]
GI50: 6.93 nM

COMPOUND: C[C@H](Nc1c(-c2nc3ccc(N4CCOC(C(=O)O)C4)cc3[nH]2)c(=O)[nH]c2ccccc12)c1ccccn1 (mixture of isomers) [Compound 60]
GI50: 1280 nM

COMPOUND: CC(Nc1c(-c2nc3ccc(N4CCOCC4)cc3[nH]2)c(=O)[nH]c2ccccc12)c1ccn(C(C)C)n1 (single isomer, unassigned) [Compound 36b]
GI50: 315 nM

COMPOUND: CC(Nc1c(-c2nc3ccc(N4CCOCC4)c(F)c3[nH]2)c(=O)[nH]c2ccccc12)c1ncccn1 (single isomer, unassigned) [Compound 23a]
GI50: 8.34 nM

COMPOUND: C[C@@H]1CN(c2ccc3nc(-c4c(N[C@@H](C)c5ccccn5)c5ccccc5[nH]c4=O)[nH]c3c2)C[C@H](C)O1 [Compound 4]
GI50: 24.8 nM

====

Target: human FGFR3 wild type enzyme (cytoplasmic domain) (Homo sapiens)
Sequence (P22607 397-806 limits assumed): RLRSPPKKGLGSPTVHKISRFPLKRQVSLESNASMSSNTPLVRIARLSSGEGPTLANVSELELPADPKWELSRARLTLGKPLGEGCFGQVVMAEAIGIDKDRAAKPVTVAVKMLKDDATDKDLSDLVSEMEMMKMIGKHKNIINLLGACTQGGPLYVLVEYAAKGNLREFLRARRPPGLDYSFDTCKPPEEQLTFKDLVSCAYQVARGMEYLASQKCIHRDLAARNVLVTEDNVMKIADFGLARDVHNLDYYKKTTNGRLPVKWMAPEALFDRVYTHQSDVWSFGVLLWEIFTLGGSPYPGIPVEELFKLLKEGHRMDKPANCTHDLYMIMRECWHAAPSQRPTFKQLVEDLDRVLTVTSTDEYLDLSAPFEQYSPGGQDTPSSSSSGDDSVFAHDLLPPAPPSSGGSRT
Criterion: IC50 strictly less than 1 nM. Met: True. Not met: False.

MOLECULE: C[C@H](Nc1c(-c2nc3ccc(OC4CCN(C)CC4)cc3[nH]2)c(=O)[nH]c2ccccc12)c1ccccn1
DISCRETE_LABEL: True
--
MOLECULE: Cc1cc(N2CCOCC2)cc2[nH]c(-c3c(N[C@@H](C)c4ncccn4)c4ccccc4[nH]c3=O)nc12
DISCRETE_LABEL: False
--
MOLECULE: CC(C)N1CCN(c2ccc3nc(-c4c(N[C@@H](C)c5ccccn5)c5ccccc5[nH]c4=O)[nH]c3c2)CC1
DISCRETE_LABEL: True
--
MOLECULE: CC(Nc1c(-c2nc3ccc(N4CCOCC4)cc3[nH]2)c(=O)[nH]c2ccccc12)c1ccn(C(C)C)n1 (single isomer, unassigned) [Compound 36b]
DISCRETE_LABEL: False
--
MOLECULE: Cc1ccnc(C(C)Nc2c(-c3nc4ccc(N5CCOCC5)cc4[nH]3)c(=O)[nH]c3ccccc23)n1 (single isomer, unassigned) [Compound 34a]
DISCRETE_LABEL: False
--
MOLECULE: CC(Nc1c(-c2nc3cc(F)c(N4CCOCC4)cc3[nH]2)c(=O)[nH]c2ccccc12)c1ncccn1 (single isomer, unassigned) [Compound 27a]
DISCRETE_LABEL: True
--
MOLECULE: C[C@H](Nc1c(-c2nc3ccc(N4CCN(C)CC4)cc3[nH]2)c(=O)[nH]c2cc(F)ccc12)c1ccccn1
DISCRETE_LABEL: True
--
MOLECULE: CC(Nc1c(-c2nc3ccc(N4CCN(C)CC4)cc3[nH]2)c(=O)[nH]c2ccccc12)c1cocn1 (single isomer, unassigned) [Compound 11a]
DISCRETE_LABEL: False
--
MOLECULE: O=c1[nH]c2ccccc2c(NC(c2ncccn2)C2CC2)c1-c1nc2ccc(N3CCOCC3)cc2[nH]1 (single isomer, unassigned) [Compound 33a]
DISCRETE_LABEL: True
--
MOLECULE: C[C@H](Nc1c(-c2nc3ccc(N4CCOCC4)cc3[nH]2)c(=O)[nH]c2ccccc12)c1nccc(C2CC2)n1 (single isomer, unassigned) [Compound 50a]
DISCRETE_LABEL: False
--
MOLECULE: CCCC(Nc1c(-c2nc3ccc(N4CCOCC4)cc3[nH]2)c(=O)[nH]c2ccccc12)c1ncccn1 (single isomer, unassigned) [Compound 31a]
DISCRETE_LABEL: True
--
MOLECULE: CC(C)c1ccnc(C(C)Nc2c(-c3nc4ccc(N5CCOCC5)cc4[nH]3)c(=O)[nH]c3ccccc23)n1 (single isomer, unassigned) [Compound 49a]
DISCRETE_LABEL: False

====

The following compounds are shown together with reported GI50 values.
Target: NIH/3T3 cells overexpressing FGFR3 WT-TACC3 fusion protein (Homo sapiens)
Construct: NIH/3T3 FGFR3 WT-TACC3 CTG (IC50); other: 72-hr incubation, CellTiter Glo, starting with 10 μM; fused on or other part: Q9Y6A5 (Transforming acidic coiled-coil-containing protein 3)
Assay: NIH/3T3 FGFR3 WT-TACC3 cell proliferation assay
Format: cell-based
Conditions: 72-hr incubation, CellTiter Glo, starting with 10 μM; read-out: NIH/3T3 FGFR3 WT-TACC3 CTG (IC50)
Protocol: NIH/3T3 FGFR3 WT-TACC3 Cell Proliferation Assay In day 1, 90 μL of cell suspension (NIH/3T3 cells overexpressing FGFR3 WT-TACC3 fusion protein) (total 30,000 cells per well in growth medium (DMEM containing 1% Glutamax, 10% FBS and 1% Pen/Strep)) was seeded in a 96-well plate and then incubated overnight at 37° C. and 5% CO2. […]

COMPOUND: C[C@@H]1CN(c2ccc3nc(-c4c(N[C@@H](C)c5ccccn5)c5ccccc5[nH]c4=O)[nH]c3c2)C[C@@H](C)O1 [Compound 21]
SCALE_UNIT: nM
GI50: 25
--
COMPOUND: CC(Nc1c(-c2nc3ccc(N4CCOCC4)cc3[nH]2)c(=O)[nH]c2ccccc12)c1cocn1 (single isomer, unassigned) [Compound 51a]
SCALE_UNIT: nM
GI50: 30.1
--
COMPOUND: C[C@H](Nc1c(-c2nc3cc(C(F)(F)F)c(N4CCN(C)CC4)cc3[nH]2)c(=O)[nH]c2ccccc12)c1ccccn1 [Compound 14]
SCALE_UNIT: nM
GI50: 52.2
--
COMPOUND: COc1ccnc(C(C)Nc2c(-c3nc4ccc(N5CCOCC5)cc4[nH]3)c(=O)[nH]c3ccccc23)c1 (single isomer, unassigned) [Compound 48a]
SCALE_UNIT: nM
GI50: 454
--
COMPOUND: C[C@H](Nc1c(-c2nc3ccc(N4CCOCC4)cc3[nH]2)c(=O)[nH]c2ccc(F)cc12)c1ccccn1 [Compound 17]
SCALE_UNIT: nM
GI50: 58.7
--
COMPOUND: C[C@H](Nc1c(-c2nc3ccc(N4CCN(C)CC4)cc3[nH]2)c(=O)[nH]c2ccccc12)c1ccccn1 [Compound 65]
SCALE_UNIT: nM
GI50: 5.93

====

The following compounds are shown together with reported pIC50 values.
Target: human FGFR3 V555M enzyme (cytoplasmic domain carrying V555M mutation) (Homo sapiens, UniProt P22607, V555M)
Construct: human FGFR3 V555M enzyme (cytoplasmic domain carrying V555M mutation, from Carna Biosciences)
Sequence (P22607 397-806 V555M limits assumed): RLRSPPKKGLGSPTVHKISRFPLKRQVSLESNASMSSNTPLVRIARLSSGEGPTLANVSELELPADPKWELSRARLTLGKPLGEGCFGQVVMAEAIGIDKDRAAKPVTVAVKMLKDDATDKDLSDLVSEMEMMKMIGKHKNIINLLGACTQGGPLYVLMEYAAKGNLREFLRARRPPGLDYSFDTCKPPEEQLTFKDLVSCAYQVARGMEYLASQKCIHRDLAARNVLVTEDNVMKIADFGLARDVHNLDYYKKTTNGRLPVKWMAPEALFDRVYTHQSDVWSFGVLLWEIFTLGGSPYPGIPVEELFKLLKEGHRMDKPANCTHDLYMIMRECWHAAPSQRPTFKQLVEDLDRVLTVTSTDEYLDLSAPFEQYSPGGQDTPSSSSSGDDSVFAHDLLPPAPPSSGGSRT
Assay: FGFR3 V555M mobility shift assay (enzymatic assay)
Settings: 30 μM ATP, 45 minutes at 30° C., Caliper EZ reader II
pIC50: −log10 of the molar value.

COMPOUND: CC(Nc1c(-c2nc3ccc(N4C[C@H](C)O[C@@H](C)C4)cc3[nH]2)c(=O)[nH]c2ccccc12)c1ncccn1 (single isomer, unassigned) [Compound 39a]
pIC50: 9.87
//
COMPOUND: CC(Nc1c(-c2nc3ccc(N4CCN(C)CC4)cc3[nH]2)c(=O)[nH]c2ccccc12)c1cocn1 (single isomer, unassigned) [Compound 11a]
pIC50: 7.92
//
COMPOUND: C[C@H](Nc1c(-c2nc3ccc(N4CCN(C)CC4)cc3[nH]2)c(=O)[nH]c2cc(F)ccc12)c1ccccn1 [Compound 63]
pIC50: 8.78
